Tested on: M. aeruginosa
Assay: Algicidal activity (growth inhibition, microplate, absorbance 650 nm) against M. aeruginosa
Format: cell-based
Settings: Microcystis aeruginosa; 96-hour IC50, mean ± SD; read-out: IC50 value M. aeruginosa
Rule: IC50 below 9 µg/mL gives Met. Equal to or above 9 µg/mL gives Not met.

A selection of reference data follows.
[
  {
    "molecule": "C[C@H](N)c1nc(C(=O)Nc2ccccc2F)cs1 [compound 18]",
    "class": "Met"
  },
  {
    "molecule": "C[C@H](N)c1nc(C(=O)Nc2ccccc2Cl)cs1 [compound 19]",
    "class": "Not met"
  },
  {
    "molecule": "C[C@H](N)c1nc(C(=O)Nc2ccc(F)cc2)cs1 [compound 8]",
    "class": "Met"
  },
  {
    "molecule": "C[C@H](N)c1nc(C(=O)Nc2ccc(OC(F)(F)F)cc2)cs1 [compound 23]",
    "class": "Met"
  },
  {
    "molecule": "C[C@H](N)c1nc(C(=O)NCc2ccccc2)cs1 [compound 32]",
    "class": "Not met"
  }
]

Req: # check: IC50 < 9 µg/mL for COc1ccc(NC(=O)c2csc([C@H](C)N)n2)cc1 [compound 12]
Resp: Met

Req: Quick check: IC50 of COc1ccccc1NC(=O)c1csc([C@H](C)N)n1 [compound 22] under 9 µg/mL?
Resp: Met

Req: Here's an entry: C[C@H](N)c1nc(C(=O)Nc2ccccc2)cs1 [compound 7] . Is its IC50 below 9 µg/mL?
Resp: Not met

Req: Strictly below 9 µg/mL in IC50? C[C@H](N)c1nc(C(=O)Nc2cccc(C(F)(F)F)c2)cs1 [compound 17]
Resp: Not met

Req: Please check: IC50 for C[C@H](N)c1nc(C(=O)Nc2ccc(Cl)cc2)cs1 [compound 9] , strictly under 9 µg/mL or not?
Resp: Met

* * *

System: M. aeruginosa
Assay: Algicidal activity (growth inhibition, microplate, absorbance 650 nm) against M. aeruginosa
Type: cell-based
Details: Microcystis aeruginosa; 96-hour IC50, mean ± SD; read-out: IC50 value M. aeruginosa
Threshold-based label: IC50 under 7 µg/mL gives yes, IC50 not under 7 µg/mL gives no.

[
  {
    "compound_structure": "C[C@H](N)c1nc(C(=O)Nc2ccc(Br)cc2)cs1",
    "class": "yes"
  },
  {
    "compound_structure": "Cc1ccc(NC(=O)c2csc([C@H](C)N)n2)cc1",
    "class": "yes"
  }
]

Req: Is 7 µg/mL strictly greater than the compound's reported IC50? compound: C[C@H](N)c1nc(C(=O)Nc2ccccc2Br)cs1
Resp: no

Req: Below 7 µg/mL on IC50? Entry CC(=O)c1ccc(NC(=O)c2csc([C@H](C)N)n2)cc1
Resp: yes

Req: Strictly below 7 µg/mL: is that where IC50 of CCOC(=O)c1ccc(NC(=O)c2csc([C@H](C)N)n2)cc1 sits?
Resp: yes

Req: Lab note: IC50 threshold 7 µg/mL. Does this compound come in strictly under it? Cc1cc(NC(=O)c2csc([C@H](C)N)n2)ccc1F
Resp: yes

Req: State whether 7 µg/mL exceeds IC50 recorded for C[C@H](N)c1nc(C(=O)Nc2ccc(C(F)(F)F)cc2)cs1 .
Resp: yes

Req: Is the reported IC50 for CCCCNC(=O)c1csc([C@H](C)N)n1 strictly below 7 µg/mL?
Resp: yes

Req: A record lists C[C@H](N)c1nc(C(=O)NCCc2ccccc2)cs1 . Is its IC50 below 7 µg/mL?
Resp: no

Req: A record lists Cc1ccccc1NC(=O)c1csc([C@H](C)N)n1 . Is its IC50 below 7 µg/mL?
Resp: no

* * *

Tested on: M. aeruginosa
Experiment: Algicidal activity (growth inhibition, microplate, absorbance 650 nm) against M. aeruginosa
Type: cell-based
Conditions: Microcystis aeruginosa; 96-hour IC50, mean ± SD; read-out: IC50 value M. aeruginosa
Procedure: According to the method established by Schrader et al.[42], algicidal activity of alkaloid (1) and its amide analogues (7–32), as well as their hydrochloric salts (7S–27S), was evaluated against three typical […] algae, S. obliqnus, M. aeruginosa, and C. […] After three algae species were inoculated, the variation of algae density over 7 days were recorded continuously. […] The wavelength at 650 nm was determined as ideal incident wavelength for the measurement of algae density. […]
IC50 overview
Respond numerically; units are µg/mL and should not be typed.

A selection of reference data follows.
[
  {
    "compound_structure": "C[C@H](N)c1nc(C(=O)Nc2cccc(Cl)c2)cs1",
    "uom": "µg/mL",
    "recorded_measurement": 5.19
  },
  {
    "compound_structure": "Cc1cccc(NC(=O)c2csc([C@H](C)N)n2)c1",
    "uom": "µg/mL",
    "recorded_measurement": 24.2
  },
  {
    "compound_structure": "C[C@H](N)c1nc(C(=O)Nc2ccc(Cl)c(Cl)c2)cs1",
    "uom": "µg/mL",
    "recorded_measurement": 9.81
  }
]

Req: Output IC50 of C[C@H](N)c1nc(C(=O)NC(C)(C)C)cs1
Resp: 5.31
